Consider the following molecules and their measured pIC50 readings.
Molecular target: human HSL (Homo sapiens)
Sequence (Q05469 1-1076): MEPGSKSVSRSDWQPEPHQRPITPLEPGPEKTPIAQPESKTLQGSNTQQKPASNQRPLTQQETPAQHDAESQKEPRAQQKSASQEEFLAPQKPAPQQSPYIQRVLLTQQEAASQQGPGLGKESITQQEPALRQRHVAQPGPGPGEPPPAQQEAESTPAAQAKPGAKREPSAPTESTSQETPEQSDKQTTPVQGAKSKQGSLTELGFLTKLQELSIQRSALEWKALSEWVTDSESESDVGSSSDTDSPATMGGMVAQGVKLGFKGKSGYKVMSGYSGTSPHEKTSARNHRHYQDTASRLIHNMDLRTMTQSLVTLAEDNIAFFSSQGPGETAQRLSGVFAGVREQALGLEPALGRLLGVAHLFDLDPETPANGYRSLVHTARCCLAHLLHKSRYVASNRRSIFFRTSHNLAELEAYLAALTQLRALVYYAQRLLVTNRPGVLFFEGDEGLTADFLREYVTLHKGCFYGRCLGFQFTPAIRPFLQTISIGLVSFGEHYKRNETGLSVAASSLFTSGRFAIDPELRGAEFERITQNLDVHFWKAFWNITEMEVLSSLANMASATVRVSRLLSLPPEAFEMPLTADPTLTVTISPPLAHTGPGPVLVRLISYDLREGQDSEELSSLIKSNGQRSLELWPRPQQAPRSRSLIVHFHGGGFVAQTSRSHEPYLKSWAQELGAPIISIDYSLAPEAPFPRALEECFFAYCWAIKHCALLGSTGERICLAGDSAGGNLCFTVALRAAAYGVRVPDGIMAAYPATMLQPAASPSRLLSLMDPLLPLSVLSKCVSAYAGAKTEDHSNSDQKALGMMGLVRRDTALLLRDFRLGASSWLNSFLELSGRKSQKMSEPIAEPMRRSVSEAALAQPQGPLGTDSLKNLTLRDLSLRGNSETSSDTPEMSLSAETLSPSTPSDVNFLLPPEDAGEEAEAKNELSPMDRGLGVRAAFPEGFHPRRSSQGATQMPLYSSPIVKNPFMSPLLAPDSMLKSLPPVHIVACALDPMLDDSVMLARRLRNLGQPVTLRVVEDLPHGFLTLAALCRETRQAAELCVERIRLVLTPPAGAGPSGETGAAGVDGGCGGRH
Structures can show the parent of a compound that is named as a salt.
Lab note — pIC50 values are minus log10 of concentrations in M.

- CCc1ccc(NC(=O)C2(N)CCN(S(=O)(=O)c3ccc(C(F)(F)F)cc3Cl)CC2)cc1 [Example 147]: 6.37
- CC(C)(C)c1ccc(NC(=O)C2(O)CCN(Cc3ccccc3)CC2)cc1 [Example 3]: 6.41
- CC(C)c1ccc(NC(=O)C2(N)CCN(C(=O)Nc3ccc(F)cc3)CC2)cc1 [Example 106, hydrochloride]: 6.68
- CC(C)c1ccc(NC(=O)C2(N)CCN(Cc3ccccc3F)CC2)cc1 [Example 109, hydrochloride]: 7.10
- CN(C(=O)C1(O)CCN(S(=O)(=O)c2ccccc2Cl)CC1)c1ccc(OC(F)(F)F)cc1 [Example 72]: 7.22

Fill in: pIC50 of CC(C)(C)c1ccc(NC(=O)C2(N)CCN(C(=O)Nc3ccc(OC(F)(F)F)cc3)CC2)cc1 [Example 86, hydrochloride] is ___
6.85

Fill in: pIC50 of CCc1ccc(NC(=O)C2(N)CCN(Cc3ccccc3C)CC2)cc1 [Example 152] is ___
6.92

Fill in: pIC50 of O=C(CC1CCCC1)N1CCC(O)(C(=O)Nc2ccc(OC(F)(F)F)cc2)CC1 [Example 53] is ___
6.10

====

Biological target: UniProt Q05469
Structures can show the parent of a compound that is named as a salt.
Consider the following molecules and their measured pIC50 readings.
Lab note — pIC50 values are minus log10 of concentrations in M.

Answered examples (5):
* CCc1ccc(NC(=O)C2(N)CCN(S(=O)(=O)c3ccc(C)cc3)CC2)cc1 | 6.92
* CC(C)c1ccc(NC(=O)C2(N)CCN(C(=O)c3ccccc3OC(F)(F)F)CC2)cc1 | 6.70
* CC(C)c1ccc(NC(=O)N2CCC(N)(C(=O)Nc3ccc(C(C)C)cc3)CC2)cc1 [Example 107, hydrochloride] | 7.10
* O=C(c1ccccc1Cl)N1CCC(O)(C(=O)Nc2ccc(OC(F)(F)F)cc2)CC1 | 6.34
* CC(C)c1ccc(NC(=O)C2(N)CCN(S(=O)(=O)c3ccc(C(F)(F)F)cc3Cl)CC2)cc1 | 6.30

What is its pIC50 for UniProt Q05469? Entry: CC(C)(C)c1ccc(NC(=O)C2(O)CCN(Cc3ccccc3OC(F)(F)F)CC2)cc1
6.96

What is its pIC50 for UniProt Q05469? Entry: CC(C)c1ccc(NC(=O)C2(O)CCN(C(=O)CC(C)(C)C)CC2)cc1
6.14

What is its pIC50 for UniProt Q05469? Entry: CC(C)c1ccc(NC(=O)C2(N)CCN(Cc3ccccc3Cl)CC2)cc1 [Example 110, hydrochloride]
7.10

What is its pIC50 for UniProt Q05469? Entry: COc1ccc(Cl)cc1NC(=O)N1CCC(O)(C(=O)Nc2ccc(C(C)(C)C)cc2)CC1
6.08

====

Counter-ions that a name gives are not always drawn.
Entries below carry reported IC50 on human HSL (Homo sapiens).
Answer in nM, number only, no unit symbol.

Answered examples (2):
* O=C(Nc1ccc(OC(F)(F)F)cc1)C1(O)CCN(S(=O)(=O)c2ccccc2Cl)CC1 | 120
* O=C(Nc1ccc(OC(F)(F)F)cc1)C1(O)CCN(S(=O)(=O)c2ccccc2C(F)(F)F)CC1 | 150

Please turn your attention to the following entry.
What is its IC50 for human HSL (Homo sapiens)? Entry: CC(C)c1ccc(NC(=O)C2(N)CCN(S(=O)(=O)c3ccccc3Cl)CC2)cc1 [Example 116, hydrochloride]
40

====

Consider the following compounds and their measured IC50 readings.
Molecular target: human HSL (Homo sapiens)
Sequence (Q05469 1-1076): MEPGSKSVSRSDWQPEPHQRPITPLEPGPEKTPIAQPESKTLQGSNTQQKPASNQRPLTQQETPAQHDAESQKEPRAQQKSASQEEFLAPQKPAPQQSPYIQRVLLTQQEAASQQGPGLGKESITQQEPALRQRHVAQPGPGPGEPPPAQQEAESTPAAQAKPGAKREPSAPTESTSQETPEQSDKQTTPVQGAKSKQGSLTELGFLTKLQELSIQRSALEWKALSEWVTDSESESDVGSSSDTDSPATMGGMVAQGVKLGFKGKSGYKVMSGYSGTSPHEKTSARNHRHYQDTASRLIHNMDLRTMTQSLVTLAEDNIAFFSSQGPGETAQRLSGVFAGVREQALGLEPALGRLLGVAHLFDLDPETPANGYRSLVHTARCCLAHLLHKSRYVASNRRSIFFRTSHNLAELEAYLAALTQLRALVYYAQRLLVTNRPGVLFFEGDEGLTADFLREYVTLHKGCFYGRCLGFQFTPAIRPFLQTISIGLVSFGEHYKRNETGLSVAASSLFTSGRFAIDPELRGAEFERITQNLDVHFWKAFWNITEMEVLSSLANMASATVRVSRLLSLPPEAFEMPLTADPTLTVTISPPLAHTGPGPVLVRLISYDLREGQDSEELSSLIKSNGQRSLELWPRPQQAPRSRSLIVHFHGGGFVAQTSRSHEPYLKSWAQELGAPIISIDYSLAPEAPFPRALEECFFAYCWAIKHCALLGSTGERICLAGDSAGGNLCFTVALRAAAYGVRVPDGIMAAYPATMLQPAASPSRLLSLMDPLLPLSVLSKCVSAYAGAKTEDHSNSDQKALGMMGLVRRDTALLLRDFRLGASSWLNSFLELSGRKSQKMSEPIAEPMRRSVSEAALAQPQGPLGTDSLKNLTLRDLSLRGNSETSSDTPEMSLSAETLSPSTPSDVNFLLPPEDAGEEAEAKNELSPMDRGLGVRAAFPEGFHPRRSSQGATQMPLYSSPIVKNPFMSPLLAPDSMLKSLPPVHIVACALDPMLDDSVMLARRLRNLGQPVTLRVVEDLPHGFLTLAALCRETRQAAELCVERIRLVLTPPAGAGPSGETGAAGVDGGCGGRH
Structures can show the parent of a compound that is named as a salt.
// return the numeric value with its unit appended

Answered examples (3):
• O=C(Nc1ccc(F)cc1)N1CCC(O)(C(=O)Nc2ccc(OC(F)(F)F)cc2)CC1 = 950 nM
• CC(C)(C)CC(=O)N1CCC(O)(C(=O)Nc2ccc(OC(F)(F)F)cc2)CC1 = 810 nM
• CCCCc1ccc(S(=O)(=O)N2CCC(N)(C(=O)Nc3ccc(CC)cc3)CC2)cc1 = 90 nM

Fill in: IC50 of CCc1ccc(NC(=O)C2(N)CCN(Cc3ccccc3Cl)CC2)cc1 is ___
110 nM

Fill in: IC50 of CC(C)c1ccc(NC(=O)C2(N)CCN(S(=O)(=O)c3ccc(C(C)C)cc3)CC2)cc1 [Example 83, hydrochloride] is ___
230 nM

Fill in: IC50 of CC(C)(C)c1ccc(NC(=O)C2(O)CCN(C(=O)c3ccc(F)cc3C(F)(F)F)CC2)cc1 is ___
600 nM

Fill in: IC50 of Cc1ccc(S(=O)(=O)N2CCC(N)(C(=O)Nc3ccc(OC(C)C)cc3)CC2)cc1 [Example 79, hydrochloride] is ___
130 nM

Fill in: IC50 of CC(C)c1ccc(NC(=O)C2(O)CCN(Cc3ccc(C(F)(F)F)cc3)CC2)cc1 is ___
450 nM

Value source: patent US8399676B2
